Entries and their measured IC50 follow.
Study Target: mADAM-10 or hADAM-10 (UniProt O14672)

Solved cases below.
>  <Compound>
O=C(NO)[C@H]1CN(C(=O)c2ccc(-c3ccccc3)cc2)CCN1S(=O)(=O)c1cc(F)c(Oc2ccc(Cl)cc2)c(F)c1 [Entry 51]

>  <Result>
50 to 1000 nM

$$$$
>  <Compound>
O=C(NO)[C@H]1CN(C(=O)N2CCOCC2)CCN1S(=O)(=O)c1cc(F)c(Oc2ccc(F)cc2)c(F)c1 [Entry 12]

>  <Result>
< 50 nM

$$$$
>  <Compound>
CCOC(=O)N1CCN(CCS(=O)(=O)N2CCN(S(=O)(=O)c3cc(F)c(Oc4ccc(Cl)cc4)c(F)c3)[C@@H](C(=O)NO)C2)CC1 [Entry 56]

>  <Result>
< 50 nM

$$$$

Now for the compound whose IC50 we want.
Send back mADAM-10 or hADAM-10 (UniProt O14672) IC50 of CCCCCCC(=O)N1CCN(S(=O)(=O)c2cc(F)c(Oc3ccc(Cl)cc3)c(F)c2)[C@@H](C(=O)NO)C1 [Entry 43] only.
< 50 nM

====

Study Target: mADAM-10 or hADAM-10 (UniProt O14672)
pIC50: −log10 of the molar value.
Property Label: pIC50

>  <Molecule>
CN1CCN(S(=O)(=O)c2cc(F)c(Oc3ccc(F)cc3)c(F)c2)[C@@H](C(=O)NO)C1

>  <Study Target>
mADAM-10 or hADAM-10 (UniProt O14672)

>  <Property Label>
pIC50

>  <Result>
6.00 to 7.30

$$$$
>  <Molecule>
O=C(NO)[C@H]1CN(C(=O)C(=O)N2CCCCC2)CCN1S(=O)(=O)c1cc(F)c(Oc2ccc(Cl)cc2)c(F)c1

>  <Study Target>
mADAM-10 or hADAM-10 (UniProt O14672)

>  <Property Label>
pIC50

>  <Result>
> 7.30

$$$$
>  <Molecule>
O=C(NO)[C@H]1CN(C(=O)OCCN2CCCC2)CCN1S(=O)(=O)c1cc(F)c(Oc2ccc(Cl)cc2)c(F)c1

>  <Study Target>
mADAM-10 or hADAM-10 (UniProt O14672)

>  <Property Label>
pIC50

>  <Result>
> 7.30

$$$$
>  <Molecule>
O=C(NO)[C@H]1CN(S(=O)(=O)NC(=O)N2CCOCC2)CCN1S(=O)(=O)c1cc(F)c(Oc2ccc(Cl)cc2)c(F)c1

>  <Study Target>
mADAM-10 or hADAM-10 (UniProt O14672)

>  <Property Label>
pIC50

>  <Result>
> 7.30

$$$$
>  <Molecule>
CN1CCN(C(=O)NS(=O)(=O)N2CCN(S(=O)(=O)c3cc(F)c(Oc4ccc(Cl)cc4)c(F)c3)[C@@H](C(=O)NO)C2)CC1

>  <Study Target>
mADAM-10 or hADAM-10 (UniProt O14672)

>  <Property Label>
pIC50

>  <Result>
> 7.30

$$$$
>  <Molecule>
O=C(NO)[C@H]1CN(C(=O)OCc2ccccc2)CCN1S(=O)(=O)c1cc(F)c(Oc2ccc(Cl)cc2)c(F)c1

>  <Study Target>
mADAM-10 or hADAM-10 (UniProt O14672)

>  <Property Label>
pIC50

>  <Result>
> 7.30

$$$$

Kindly review the next molecule as well.
Lab note: record pIC50 of `O=C(O)CN1CCN(S(=O)(=O)c2cc(F)c(Oc3ccc(Cl)cc3)c(F)c2)[C@@H](C(=O)NO)C1` tested on mADAM-10 or hADAM-10 (UniProt O14672).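 Further: fluorescence from cleavage of a quenched 10-residue DABCYL/EDANS peptide by 5 nM enzyme in HEPES pH 8.0 buffer, 16 hr at room temperature, compounds serially diluted 100 µM to 0.5 nM.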
6.00 to 7.30
